- MEASURED_ON: mTGR5 (Mus musculus)
- Sequence (Q80SS6 whole entry): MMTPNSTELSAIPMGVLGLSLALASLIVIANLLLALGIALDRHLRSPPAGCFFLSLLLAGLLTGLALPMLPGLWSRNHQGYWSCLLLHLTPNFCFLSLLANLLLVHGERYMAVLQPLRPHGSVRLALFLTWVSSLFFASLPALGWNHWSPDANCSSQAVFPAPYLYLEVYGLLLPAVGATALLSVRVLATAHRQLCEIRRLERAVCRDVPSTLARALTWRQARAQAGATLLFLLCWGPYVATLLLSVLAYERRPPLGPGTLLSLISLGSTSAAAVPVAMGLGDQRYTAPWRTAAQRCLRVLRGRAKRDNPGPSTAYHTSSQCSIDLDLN
- EXPERIMENT_NOTES: TGR5/CRE Luciferase Assay (mTGR5)
- EXPERIMENTAL_CONTEXT: HEK 293 cells co-transfected with pCMV AC6-TGR5m and pCRE TA-Luciferase; overnight incubation
Overview of recorded pEC50 for various compounds
Would you please state pEC50, meaning minus log10 of the concentration in mol/L, as a bare number?

The compound listed as COCCN1C(=O)CC(c2ccc(Cl)cc2)C(C(=O)OCc2cccc(OC)c2)=C1C (centres unmarked) [Example 103] shows pEC50 equal to 6.40

====

- MEASURED_ON: hTGR5 (Homo sapiens)
- Construct: expressed in transfected cells; host or cells: HEK293 cells, transiently co-transfected with the pCRE TA-Luciferase reporter
- Sequence (Q8TDU6 whole entry): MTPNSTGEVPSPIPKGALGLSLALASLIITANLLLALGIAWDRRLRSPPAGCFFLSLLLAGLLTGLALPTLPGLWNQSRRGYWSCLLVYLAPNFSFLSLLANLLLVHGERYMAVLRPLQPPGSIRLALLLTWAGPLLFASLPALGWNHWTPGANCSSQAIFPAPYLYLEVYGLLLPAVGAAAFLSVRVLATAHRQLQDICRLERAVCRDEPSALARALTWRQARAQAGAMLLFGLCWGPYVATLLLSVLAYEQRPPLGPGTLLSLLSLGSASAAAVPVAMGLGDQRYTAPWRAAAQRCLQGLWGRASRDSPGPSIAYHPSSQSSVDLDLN
- EXPERIMENT_NOTES: TGR5/CRE Luciferase Assay (hTGR5)
- Format: cell-based
- EXPERIMENTAL_CONTEXT: percentage of the 10 μM LCA value; HEK 293 cells transfected with hTGR5
Overview of recorded hTGR5 % trans for various compounds
Number only, in %; omit the unit.

Some solved entries appear below for comparison.
COCCN1C(=O)CC(c2ccc(Cl)cc2)C(C(=O)OCc2c(C)cc(C)cc2C)=C1C (centres unmarked) : 75
COCCOc1ccc(COC(=O)C2=C(C)N(C[C@@H]3CCCO3)C(=O)C[C@H]2c2ccc(Cl)cc2)cc1 (racemic) : 77
O=C(NCc1ccccc1)C1=CN(CC2CC2)C(=O)CC1c1ccc(Cl)cc1 (centres unmarked) : 16
CC1=C(C(=O)OCc2ccccc2)C(c2ccc(Cl)cc2)CC(=O)N1CC1C[N+](C)(C)C1.[I-] (centres unmarked) : 13

The compound listed as COCCN1C(=O)CC(c2ccc(Cl)cc2)C(C(=O)OCC(=O)c2ccccc2)=C1C (centres unmarked) shows hTGR5 % trans equal to 20

The compound listed as COc1ccccc1COC(=O)C1=C(C)N(C[C@H]2CCCO2)C(=O)C[C@H]1c1ccc(Cl)cc1 shows hTGR5 % trans equal to 103

The compound listed as COCCN1C(=O)CC(c2ccncc2)C(C(=O)OCc2ccccc2OC)=C1C (centres unmarked) shows hTGR5 % trans equal to 72

The compound listed as COCCN1C(=O)CC(c2ccc(Cl)cc2)C(C(=O)OCc2ccccc2F)=C1C (centres unmarked) shows hTGR5 % trans equal to 71

The compound listed as CC1=C(C(=O)OCc2ccccc2)C(c2ccc(Cl)cc2)CC(=O)N1CCCN(C)C (centres unmarked) shows hTGR5 % trans equal to 10

The compound listed as C=CCN1C(=O)CC(c2ccc(Cl)cc2)C(C(=O)OCc2ccccc2)=C1C (centres unmarked) shows hTGR5 % trans equal to 75

The compound listed as CCOC(=O)CN1C(=O)CC(c2ccc(Cl)cc2)C(C(=O)OCc2ccccc2OC)=C1C (centres unmarked) shows hTGR5 % trans equal to 105

The compound listed as COc1ccccc1COC(=O)C1=C(C)N(C[C@H]2CCCO2)C(=O)C[C@H]1c1cccnc1Cl (racemic) shows hTGR5 % trans equal to 87

The compound listed as COc1cccc(C2CC(=O)NC(C)=C2C(=O)OCc2ccccc2)c1 (centres unmarked) shows hTGR5 % trans equal to 31

The compound listed as COCCN1C(=O)CC(c2ccc(Cl)cc2)C(C(=O)OCCCc2ccccc2)=C1C (centres unmarked) shows hTGR5 % trans equal to 55

The compound listed as COc1ccccc1COC(=O)C1=C(C)N(C[C@H]2CCCO2)C(=O)C[C@@H]1c1ccc(Cl)nc1 shows hTGR5 % trans equal to 99

The compound listed as COc1ccccc1COC(=O)C1=C(C)N(C[C@H]2CCCO2)C(=O)C[C@H]1c1ccc(Cl)c(Cl)c1 (racemic) shows hTGR5 % trans equal to 91

The compound listed as COc1ccccc1COC(=O)C1=C(C)N(C[C@H]2CCCO2)C(=O)C[C@H]1c1ccc2nsnc2c1 (racemic) shows hTGR5 % trans equal to 106
